These measurements were taken from paper PMC5164959.

Target entity: 5-HT2C (Homo sapiens)
Sequence (P28335 33-458): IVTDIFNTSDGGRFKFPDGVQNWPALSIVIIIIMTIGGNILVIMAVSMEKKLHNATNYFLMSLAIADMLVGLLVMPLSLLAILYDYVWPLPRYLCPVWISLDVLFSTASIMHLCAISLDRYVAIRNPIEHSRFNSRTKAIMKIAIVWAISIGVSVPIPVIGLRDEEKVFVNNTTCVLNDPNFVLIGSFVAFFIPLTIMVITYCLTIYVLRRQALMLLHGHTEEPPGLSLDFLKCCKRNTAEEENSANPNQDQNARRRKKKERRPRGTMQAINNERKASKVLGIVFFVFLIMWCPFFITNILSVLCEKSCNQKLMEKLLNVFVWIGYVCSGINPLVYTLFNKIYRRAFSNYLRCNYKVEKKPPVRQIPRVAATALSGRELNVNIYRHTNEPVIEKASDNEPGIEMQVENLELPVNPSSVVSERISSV
Experimental protocol: Radioligand competition binding assay
Measurement setup: read-out: Ki 5-HT2C; Cheng-Prusoff from best-fit IC50
Property label: pKi
Numbers only, as −log10 of the molar value.

IN: Endpoint output: pKi of "Cc1nc2sccn2c(=O)c1CCN1CCC(=C(c2ccccc2)c2ccc(F)cc2)CC1" . Value?
OUT: 9.10

* * *

Target entity: UniProt:P34969
Sequence (P34969 whole entry, species assumed): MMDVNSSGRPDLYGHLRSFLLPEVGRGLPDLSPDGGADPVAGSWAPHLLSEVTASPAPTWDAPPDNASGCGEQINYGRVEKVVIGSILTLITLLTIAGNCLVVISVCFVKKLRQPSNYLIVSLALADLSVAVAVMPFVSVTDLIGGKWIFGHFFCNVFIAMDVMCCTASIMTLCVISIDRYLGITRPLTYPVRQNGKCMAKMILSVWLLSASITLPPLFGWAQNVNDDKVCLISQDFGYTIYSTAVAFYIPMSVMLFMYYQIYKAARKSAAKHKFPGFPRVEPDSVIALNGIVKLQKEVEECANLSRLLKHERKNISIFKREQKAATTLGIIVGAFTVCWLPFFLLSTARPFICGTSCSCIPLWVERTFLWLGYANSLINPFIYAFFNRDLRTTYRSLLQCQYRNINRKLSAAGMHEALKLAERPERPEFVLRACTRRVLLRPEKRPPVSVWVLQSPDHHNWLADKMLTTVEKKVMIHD
Experimental protocol: Radioligand competition binding assay
Property label: Ki (nM)
Give bare numbers, in nM.

IN: Endpoint output: Ki of "O=c1c2ccccc2[nH]c(=S)n1CCN1CCC(=C(c2ccc(F)cc2)c2ccc(F)cc2)CC1" . Value?
OUT: 681

* * *

Target entity: 5-HT2B (Homo sapiens)
Experimental protocol: Radioligand competition binding assay
Measurement setup: read-out: Ki 5-HT2B; Cheng-Prusoff from best-fit IC50
Property label: Ki (nM)
Answers are plain numbers, in nM.

IN: Endpoint output: Ki of "Cc1nc2sccn2c(=O)c1CCN1CCC(=C(c2ccccc2)c2ccc(F)cc2)CC1" . Value?
OUT: 2.7

* * *

Target entity: UniProtKB P08908
Experimental protocol: Radioligand competition binding assay
Measurement setup: read-out: Ki 5-HT1A; Cheng-Prusoff from best-fit IC50
Property label: pKi
One number for each entry, as −log10 of the molar value.

IN: Endpoint output: pKi of "Cc1nc2sccn2c(=O)c1CCN1CCC(=C(c2ccccc2)c2ccc(F)cc2)CC1" . Value?
OUT: 6.39

* * *

Target entity: UniProt:P47898
Sequence (P47898 whole entry, species assumed): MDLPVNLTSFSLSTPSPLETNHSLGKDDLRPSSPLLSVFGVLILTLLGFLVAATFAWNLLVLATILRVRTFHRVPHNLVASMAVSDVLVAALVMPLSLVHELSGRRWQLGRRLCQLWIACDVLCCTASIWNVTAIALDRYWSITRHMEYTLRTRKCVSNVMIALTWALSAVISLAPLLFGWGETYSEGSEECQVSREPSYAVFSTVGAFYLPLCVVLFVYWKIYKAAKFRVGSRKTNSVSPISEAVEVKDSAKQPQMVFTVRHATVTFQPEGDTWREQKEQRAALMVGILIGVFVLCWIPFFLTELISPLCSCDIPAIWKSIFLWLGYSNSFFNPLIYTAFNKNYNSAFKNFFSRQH
Experimental protocol: Radioligand competition binding assay
Property label: pKi
One number for each entry, as −log10 of the molar value.

IN: Endpoint output: pKi of "O=c1c2ccccc2[nH]c(=S)n1CCN1CCC(=C(c2ccc(F)cc2)c2ccc(F)cc2)CC1" . Value?
OUT: 5.49

* * *

Target entity: DGKα (Rattus norvegicus, UniProt P51556)
Sequence (P51556 whole entry): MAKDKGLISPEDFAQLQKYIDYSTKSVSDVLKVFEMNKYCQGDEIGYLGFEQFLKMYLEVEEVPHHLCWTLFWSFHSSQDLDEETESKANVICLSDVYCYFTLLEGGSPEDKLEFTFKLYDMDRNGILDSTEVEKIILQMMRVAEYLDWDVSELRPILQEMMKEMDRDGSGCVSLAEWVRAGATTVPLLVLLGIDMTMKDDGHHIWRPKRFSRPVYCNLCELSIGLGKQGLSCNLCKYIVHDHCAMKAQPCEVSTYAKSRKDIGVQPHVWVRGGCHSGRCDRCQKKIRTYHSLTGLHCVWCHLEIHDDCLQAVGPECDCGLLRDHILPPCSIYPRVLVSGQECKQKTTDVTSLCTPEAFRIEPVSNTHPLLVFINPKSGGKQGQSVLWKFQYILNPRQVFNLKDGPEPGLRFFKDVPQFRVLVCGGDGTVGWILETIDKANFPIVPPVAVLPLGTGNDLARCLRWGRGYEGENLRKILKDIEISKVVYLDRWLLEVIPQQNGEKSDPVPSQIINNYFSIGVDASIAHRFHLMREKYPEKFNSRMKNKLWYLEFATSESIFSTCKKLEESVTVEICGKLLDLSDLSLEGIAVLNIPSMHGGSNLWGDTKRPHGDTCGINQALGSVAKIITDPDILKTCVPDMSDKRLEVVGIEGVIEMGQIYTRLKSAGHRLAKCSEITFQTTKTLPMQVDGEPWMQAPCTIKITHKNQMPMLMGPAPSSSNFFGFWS
Experimental protocol: Kinase assay with HEK 293T cell homogenate over-expressing DGKα
Assay type: biochemical
Measurement setup: read-out: IC50 for DGKα; cell homogenate, 1 mM ATP, 10 mol% DAG
Property label: IC50

IN: Endpoint output: IC50 of "Cc1nc2sccn2c(=O)c1CCN1CCC(=C(c2ccccc2)c2ccc(F)cc2)CC1" . Value?
OUT: ~25 µM

* * *

Target entity: 5-HT2B (Homo sapiens, UniProt P41595)
Sequence (P41595 whole entry, species assumed): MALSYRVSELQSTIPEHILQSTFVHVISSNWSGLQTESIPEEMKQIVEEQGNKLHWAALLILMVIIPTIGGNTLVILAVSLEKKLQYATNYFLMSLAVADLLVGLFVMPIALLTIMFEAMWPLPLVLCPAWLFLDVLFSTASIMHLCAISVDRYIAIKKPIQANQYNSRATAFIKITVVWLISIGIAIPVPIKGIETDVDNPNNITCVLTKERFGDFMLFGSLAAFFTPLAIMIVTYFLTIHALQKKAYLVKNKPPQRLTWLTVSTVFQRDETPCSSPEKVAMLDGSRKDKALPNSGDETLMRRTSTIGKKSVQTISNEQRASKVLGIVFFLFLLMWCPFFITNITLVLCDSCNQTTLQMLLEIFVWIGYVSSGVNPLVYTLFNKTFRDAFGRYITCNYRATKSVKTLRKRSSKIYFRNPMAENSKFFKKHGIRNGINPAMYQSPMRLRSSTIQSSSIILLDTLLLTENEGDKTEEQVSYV
Experimental protocol: Radioligand competition binding assay
Property label: Ki (nM)
One number for each entry, in nM.

IN: Endpoint output: Ki of "O=c1c2ccccc2[nH]c(=S)n1CCN1CCC(=C(c2ccc(F)cc2)c2ccc(F)cc2)CC1" . Value?
OUT: 80

* * *

Target entity: UniProt P51556
Experimental protocol: Kinase assay with purified DGKα and PC:DAG:PS liposomes
Type: biochemical
Property label: IC50 (µM)
Give bare numbers, in µM.

IN: Endpoint output: IC50 of "O=C(c1ccc(F)cc1)C1CCN(CCn2c(=O)[nH]c3ccccc3c2=O)CC1" . Value?
OUT: 264

* * *

Target entity: 5-HT2C (Homo sapiens, UniProt P28335)
Experimental protocol: Radioligand competition binding assay
Property label: pKi
Give bare numbers, as −log10 of the molar value.

IN: Endpoint output: pKi of "O=c1c2ccccc2[nH]c(=S)n1CCN1CCC(=C(c2ccc(F)cc2)c2ccc(F)cc2)CC1" . Value?
OUT: 7.34

* * *

Target entity: 5-HT2A (Homo sapiens, UniProt P28223)
Sequence (P28223 whole entry, species assumed): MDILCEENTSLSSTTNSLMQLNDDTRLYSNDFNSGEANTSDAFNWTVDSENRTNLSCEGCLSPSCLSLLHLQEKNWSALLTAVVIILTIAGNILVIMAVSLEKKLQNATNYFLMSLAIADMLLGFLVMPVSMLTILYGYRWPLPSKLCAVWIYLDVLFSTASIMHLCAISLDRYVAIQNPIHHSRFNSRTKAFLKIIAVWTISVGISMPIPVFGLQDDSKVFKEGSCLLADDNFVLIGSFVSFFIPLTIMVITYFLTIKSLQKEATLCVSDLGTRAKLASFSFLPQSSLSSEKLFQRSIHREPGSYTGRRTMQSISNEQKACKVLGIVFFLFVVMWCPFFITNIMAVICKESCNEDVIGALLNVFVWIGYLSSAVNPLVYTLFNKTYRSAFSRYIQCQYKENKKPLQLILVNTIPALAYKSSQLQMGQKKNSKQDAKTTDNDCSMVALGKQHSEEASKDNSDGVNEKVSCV
Experimental protocol: Radioligand competition binding assay
Property label: pKi
Numbers only, as −log10 of the molar value.

IN: Quick check: pKi on 5-HT2A (Homo sapiens, UniProt P28223), item "O=c1c2ccccc2[nH]c(=S)n1CCN1CCC(=C(c2ccc(F)cc2)c2ccc(F)cc2)CC1" ?
OUT: 8.04

* * *

Target entity: 5-HT6 (Homo sapiens)
Sequence (P50406 whole entry, species assumed): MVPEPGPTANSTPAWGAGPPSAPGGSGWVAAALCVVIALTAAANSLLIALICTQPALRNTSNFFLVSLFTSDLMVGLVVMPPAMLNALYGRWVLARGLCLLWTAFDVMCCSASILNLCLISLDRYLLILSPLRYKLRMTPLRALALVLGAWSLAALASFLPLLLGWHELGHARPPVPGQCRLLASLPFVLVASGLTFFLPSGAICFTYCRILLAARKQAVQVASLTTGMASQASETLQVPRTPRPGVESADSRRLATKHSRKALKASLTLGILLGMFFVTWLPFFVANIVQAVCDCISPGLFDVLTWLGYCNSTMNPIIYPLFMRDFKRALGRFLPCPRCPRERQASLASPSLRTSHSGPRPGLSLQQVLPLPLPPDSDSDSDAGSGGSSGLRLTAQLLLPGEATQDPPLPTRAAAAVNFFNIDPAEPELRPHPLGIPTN
Experimental protocol: Radioligand competition binding assay
Property label: Ki (µM)
Numbers only, in µM.

IN: Endpoint output: Ki of "O=c1c2ccccc2[nH]c(=S)n1CCN1CCC(=C(c2ccc(F)cc2)c2ccc(F)cc2)CC1" . Value?
OUT: 3.07

* * *

Target entity: 5-HT1A (Homo sapiens)
Sequence (P08908 whole entry, species assumed): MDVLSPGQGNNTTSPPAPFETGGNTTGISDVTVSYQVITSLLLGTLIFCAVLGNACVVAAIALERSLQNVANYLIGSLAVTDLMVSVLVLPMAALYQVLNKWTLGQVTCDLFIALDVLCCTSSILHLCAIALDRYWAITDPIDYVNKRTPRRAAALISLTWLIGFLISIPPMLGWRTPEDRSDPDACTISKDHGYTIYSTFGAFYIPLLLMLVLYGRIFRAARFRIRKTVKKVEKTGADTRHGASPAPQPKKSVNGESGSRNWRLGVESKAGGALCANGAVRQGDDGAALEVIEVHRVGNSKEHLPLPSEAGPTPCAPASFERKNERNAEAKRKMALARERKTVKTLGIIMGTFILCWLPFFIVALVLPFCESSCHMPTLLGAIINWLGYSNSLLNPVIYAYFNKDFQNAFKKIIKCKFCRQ
Experimental protocol: Radioligand competition binding assay
Property label: pKi
Give bare numbers, as −log10 of the molar value.

IN: Endpoint output: pKi of O=c1c2ccccc2[nH]c(=S)n1CCN1CCC(=C(c2ccc(F)cc2)c2ccc(F)cc2)CC1 [R59949] . Value?
OUT: 5.70

* * *

Target entity: 5-HT1D (Homo sapiens, UniProt P28221)
Sequence (P28221 whole entry, species assumed): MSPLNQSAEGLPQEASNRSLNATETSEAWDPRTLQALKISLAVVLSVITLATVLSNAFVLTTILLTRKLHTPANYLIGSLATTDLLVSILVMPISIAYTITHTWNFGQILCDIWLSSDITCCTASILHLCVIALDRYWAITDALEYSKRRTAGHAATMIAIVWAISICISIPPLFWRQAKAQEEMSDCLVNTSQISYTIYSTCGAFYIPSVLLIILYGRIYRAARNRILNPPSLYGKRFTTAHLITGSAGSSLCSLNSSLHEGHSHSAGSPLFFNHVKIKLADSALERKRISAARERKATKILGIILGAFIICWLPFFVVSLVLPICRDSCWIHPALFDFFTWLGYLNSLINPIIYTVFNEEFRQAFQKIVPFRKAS
Experimental protocol: Radioligand competition binding assay
Property label: pKi
One number for each entry, as −log10 of the molar value.

IN: Quick check: pKi on 5-HT1D (Homo sapiens, UniProt P28221), item "O=c1c2ccccc2[nH]c(=S)n1CCN1CCC(=C(c2ccc(F)cc2)c2ccc(F)cc2)CC1" ?
OUT: 7.19

* * *

Target entity: 5-HT1D (Homo sapiens, UniProt P28221)
Experimental protocol: Radioligand competition binding assay
Measurement setup: read-out: Ki 5-HT1D; Cheng-Prusoff from best-fit IC50
Property label: pKi
Give bare numbers, as −log10 of the molar value.

IN: Endpoint output: pKi of "Cc1nc2sccn2c(=O)c1CCN1CCC(=C(c2ccccc2)c2ccc(F)cc2)CC1" . Value?
OUT: 7.91

* * *

Target entity: 5-HT2A (Homo sapiens, UniProt P28223)
Experimental protocol: Radioligand competition binding assay
Measurement setup: read-out: Ki 5-HT2A; Cheng-Prusoff from best-fit IC50
Property label: Ki (nM)
Answers are plain numbers, in nM.

IN: Endpoint output: Ki of "Cc1nc2sccn2c(=O)c1CCN1CCC(=C(c2ccccc2)c2ccc(F)cc2)CC1" . Value?
OUT: 2.2
